Ref: patent US10179777B2

tested on: ALK1-mediated SMAD1/5 phosphorylation in HUVEC cells; test: Cell-based immunofluorescence assay for ALK1-mediated SMAD1/5 phosphorylation in HUVEC cells; conditions: Homo sapiens, 1.5 ng/ml BMP-9 with compound for 2 h, % nuclei with pSMAD1/5 signal, read-out: Smad 1/5 IC50
Endpoint: pIC50
Answers are plain numbers, as −log10 of the molar value.

Here are 5 compounds together with their reported answers.
{"Compound": "O=c1[nH]cc(-c2ccnc3ccoc23)cc1-c1nc2cc(N3CCNCC3)ccc2[nH]1 [Compound A18]", "pIC50": 5.70}
{"Compound": "Cc1[nH]c2ncccc2c1-c1c[nH]c(=O)c(-c2nc3cc(N4CCN(C)CC4)ccc3[nH]2)c1 [Compound A52]", "pIC50": 5.59}
{"Compound": "O=c1[nH]cc(-c2ccnc3ccccc23)cc1-c1nc2cc(N3CCOCC3)ccc2[nH]1 [Compound A9]", "pIC50": 5.24}
{"Compound": "O=c1[nH]cc(-c2cccc(CO)c2)cc1-c1nc2cc(N3CCOCC3)ccc2[nH]1 [Compound A1]", "pIC50": 5.89}
{"Compound": "CN1CCC(Oc2ccc3[nH]c(-c4cc(-c5ccnc6ccccc56)c[nH]c4=O)nc3c2)CC1 [Compound A59]", "pIC50": 4.92}

Your task in this section: give pIC50 for each listed record.
1. CN1CCCN(c2ccc3[nH]c(-c4cc(-c5cccc(CO)c5)c[nH]c4=O)nc3c2)CC1 [Compound A33]
2. O=c1[nH]cc(-c2ccc(F)c(CO)c2)cc1-c1nc2cc(N3CCNCC3)ccc2[nH]1 [Compound A20]

Response line:
1: 6.05; 2: 5.11

----------
target: ALK5 (TGFβR1; GST-modified TGFBR1 (200-503)) (Homo sapiens, UniProt P36897); construct: Using GST-Modified TGFBR1 (200-503); GST; test: ALK5 kinase inhibition assay (33P-ATP filter binding, Reaction Biology); conditions: casein substrate, 200 μM ATP
Please respond with reported pIC50 for every item in the list.
Numbers only, as −log10 of the molar value.

Here are 3 compounds together with their reported answers.
{"Compound": "CN1CCCN(c2ccc3[nH]c(-c4cc(-c5cccc(CO)c5)c[nH]c4=O)nc3c2)CC1", "Assay Value": 5.72}
{"Compound": "O=c1[nH]cc(-c2cccc(CO)c2F)cc1-c1nc2cc(N3CCNCC3)ccc2[nH]1", "Assay Value": 5.80}
{"Compound": "O=c1[nH]cc(-c2ccnc3[nH]ccc23)cc1-c1nc2cc(Oc3ccncc3)ccc2[nH]1", "Assay Value": 5.09}

Your task in this section: give pIC50 for each listed record.
1. O=c1[nH]cc(-c2ccc(F)c(CO)c2)cc1-c1nc2cc(N3CCNCC3)ccc2[nH]1
2. O=c1[nH]cc(-c2ccc(CO)cc2)cc1-c1nc2cc(N3CCNCC3)ccc2[nH]1
3. CN1CCN(c2ccc3[nH]c(-c4cc(-c5ccnc6ccccc56)c[nH]c4=O)nc3c2)CC1
4. CN1CCN(c2ccc3[nH]c(-c4cc(-c5ccc(CO)cc5)c[nH]c4=O)nc3c2)CC1
5. O=c1[nH]cc(-c2cccc(CO)c2)cc1-c1nc2cc(N3CCCNCC3)ccc2[nH]1
6. CN1CCN(c2ccc3[nH]c(-c4cc(-c5cccc(CO)c5)c[nH]c4=O)nc3c2)CC1

Response line:
5.36
5.62
5.77
5.49
5.48
5.77

----------
target: ALK5 (TGFβR1; GST-modified TGFBR1 (200-503)) (Homo sapiens, UniProt P36897); construct: Using GST-Modified TGFBR1 (200-503); GST; assay: ALK5 kinase inhibition assay (33P-ATP filter binding, Reaction Biology); settings: casein substrate, 200 μM ATP
Structures can show the parent of a compound that is named as a salt.
Please respond with reported pIC50 for every item in the list.
Numbers only, as −log10 of the molar value.

Here are 3 molecules together with their reported answers.
{"Molecule": "CN(C)C1CCN(c2ccc3[nH]c(-c4cc(-c5cccc(CO)c5)c[nH]c4=O)nc3c2)CC1 [Compound A36, formate]", "pIC50": 5.96}
{"Molecule": "Cc1[nH]c2ncccc2c1-c1c[nH]c(=O)c(-c2nc3cc(N4CCN(C)CC4)ccc3[nH]2)c1", "pIC50": 6.32}
{"Molecule": "O=c1[nH]cc(-c2cc(F)c(CO)c(F)c2)cc1-c1nc2cc(N3CCNCC3)ccc2[nH]1 [Compound A21, dihydrochloride]", "pIC50": 5.29}

Your task in this section: give pIC50 for each listed record.
1. CN1CCN(c2ccc3[nH]c(-c4cc(-c5cnc6[nH]ccc6c5)c[nH]c4=O)nc3c2)CC1
2. O=c1[nH]cc(-c2cc(CO)ccc2Cl)cc1-c1nc2cc(N3CCNCC3)ccc2[nH]1 [Compound A22, dihydrochloride]
3. O=c1[nH]cc(-c2ccnc3[nH]ccc23)cc1-c1nc2cc(N3CCCCC3)ccc2[nH]1
4. CN1CCN(c2ccc3[nH]c(-c4cc(-c5cccc(CO)c5F)c[nH]c4=O)nc3c2)CC1 [Compound A37, trifluoroacetate]

Response line:
1: 5.00; 2: 5.68; 3: 6.06; 4: 5.60

----------
Target: ALK1 (GST-modified kinase domain ACVRL1 (139-503)) (Homo sapiens)
Sequence (P37023 139-503): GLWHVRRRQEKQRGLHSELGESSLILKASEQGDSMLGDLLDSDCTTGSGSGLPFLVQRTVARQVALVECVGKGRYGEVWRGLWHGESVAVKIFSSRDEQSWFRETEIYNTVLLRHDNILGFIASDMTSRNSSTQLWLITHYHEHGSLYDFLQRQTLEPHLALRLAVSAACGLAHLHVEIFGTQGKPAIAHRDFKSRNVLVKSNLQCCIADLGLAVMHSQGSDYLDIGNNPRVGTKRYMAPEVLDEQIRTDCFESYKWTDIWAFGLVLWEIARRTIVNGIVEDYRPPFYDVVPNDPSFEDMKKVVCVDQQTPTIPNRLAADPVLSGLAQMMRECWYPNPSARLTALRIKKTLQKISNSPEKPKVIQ
Where a name gives a salt, the structure may show the parent alone.
Note to self: use label 1 only for IC50 readings below 30 nM; a reading exactly at 30 nM still gets label 0.

{"Compound": "O=c1[nH]cc(-c2cccc(CO)c2)cc1-c1nc2cc(N3CCNCC3)ccc2[nH]1 [Compound A13, dihydrochloride]", "Group": "label 1"}
{"Compound": "O=c1[nH]cc(-c2cc(F)c(CO)c(F)c2)cc1-c1nc2cc(N3CCNCC3)ccc2[nH]1 [Compound A21, dihydrochloride]", "Group": "label 1"}
{"Compound": "O=c1[nH]cc(-c2ccnc3[nH]ccc23)cc1-c1nc2cc(N3CCNCC3)ccc2[nH]1 [Compound A44, dihydrochloride]", "Group": "label 1"}
{"Compound": "O=c1[nH]cc(-c2cccc(CO)c2)cc1-c1nc2cc(N3CCCNCC3)ccc2[nH]1", "Group": "label 1"}
{"Compound": "NC1CCN(c2ccc3[nH]c(-c4cc(-c5cccc(CO)c5)c[nH]c4=O)nc3c2)CC1 [Compound A26, dihydrochloride]", "Group": "label 1"}
{"Compound": "O=c1[nH]cc(-c2cccc(CO)c2)cc1-c1nc2cc(N3CCOCC3)ccc2[nH]1", "Group": "label 0"}
{"Compound": "CC(=O)NCc1ccc2[nH]c(-c3cc(-c4ccncc4)c[nH]c3=O)nc2c1", "Group": "label 0"}

--- query ---
Prompt line: Please determine if CN1CCN(c2ccc3[nH]c(-c4cc(-c5cnc6[nH]ccc6c5)c[nH]c4=O)nc3c2)CC1 is below 30 nM in terms of IC50.
Response line: label 0

----------
Molecular target: ALK5 (TGFβR1; GST-modified TGFBR1 (200-503)) (Homo sapiens)
Construct: Using GST-Modified TGFBR1 (200-503); GST
Sequence (P36897 200-503): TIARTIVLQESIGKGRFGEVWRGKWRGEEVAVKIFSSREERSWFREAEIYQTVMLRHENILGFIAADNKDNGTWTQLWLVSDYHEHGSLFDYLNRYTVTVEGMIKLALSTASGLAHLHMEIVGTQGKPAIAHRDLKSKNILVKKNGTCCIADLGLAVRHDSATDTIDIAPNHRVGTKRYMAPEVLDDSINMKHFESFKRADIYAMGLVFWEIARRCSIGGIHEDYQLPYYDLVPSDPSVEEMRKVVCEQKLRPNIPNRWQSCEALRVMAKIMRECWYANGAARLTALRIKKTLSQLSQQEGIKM
Assay: ALK5 kinase inhibition assay (33P-ATP filter binding, Reaction Biology)
Details: casein substrate, 200 μM ATP
Source text: The protein sequences of the kinases targeted and accompanying information are described in publically available data base http://www.uniprot.org/uniprot/for ALK1 www.uniprot.org/uniprot/P37023, for ALK2 www.uniprot.org/uniprot/Q04771 and for ALK5 www.uniprot.org/uniprot/P36897. […]
Please respond with reported IC50 for every item in the list.
Give bare numbers, in µM.

{"Compound": "CN1CCC(Oc2ccc3[nH]c(-c4cc(-c5ccnc6ccccc56)c[nH]c4=O)nc3c2)CC1 [Compound A59]", "IC50 / µM": 2.5}
{"Compound": "O=c1[nH]cc(-c2ccc(F)c(CO)c2)cc1-c1nc2cc(N3CCCNCC3)ccc2[nH]1 [Compound A24]", "IC50 / µM": 6.5}
{"Compound": "O=c1[nH]cc(-c2cccc(CO)c2)cc1-c1nc2cc(N3CCC(O)CC3)ccc2[nH]1 [Compound A12]", "IC50 / µM": 4.1}

In the following, a different compound is considered.
Prompt line: Requested field: IC50. Item: Cc1cc2c(-c3c[nH]c(=O)c(-c4nc5cc(N6CCNCC6)ccc5[nH]4)c3)ccnc2[nH]1 [Compound A48a]
Response line: 0.13
